The measured values listed here are drawn from ChEMBL document CHEMBL1133909.

As shown below, each of these compounds has a reported pKi value.
Biological target: Muscarinic acetylcholine receptor M2 (Homo sapiens)
Sequence (P08172 whole entry): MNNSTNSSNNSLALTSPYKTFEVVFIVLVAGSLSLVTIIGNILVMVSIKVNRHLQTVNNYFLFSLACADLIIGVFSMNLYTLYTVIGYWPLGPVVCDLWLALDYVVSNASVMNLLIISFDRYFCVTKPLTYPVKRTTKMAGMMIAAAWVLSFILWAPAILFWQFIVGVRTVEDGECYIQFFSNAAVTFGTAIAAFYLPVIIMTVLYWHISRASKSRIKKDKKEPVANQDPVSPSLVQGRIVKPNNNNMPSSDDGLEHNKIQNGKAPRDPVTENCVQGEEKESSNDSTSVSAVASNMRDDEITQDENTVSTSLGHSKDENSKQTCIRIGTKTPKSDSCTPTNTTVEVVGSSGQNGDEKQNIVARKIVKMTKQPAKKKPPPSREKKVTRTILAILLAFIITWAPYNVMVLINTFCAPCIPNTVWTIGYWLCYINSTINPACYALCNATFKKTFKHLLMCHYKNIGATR
pKi: −log10 of the molar value.
measure name: pKi

Cc1cccc(C)c1C(=O)N1CCC(N2CCN(Cc3ccc(S(=O)(=O)c4ccc5c(c4)OCO5)cc3)CC2)CC1 ... 7.51
Cc1cccc(C)c1C(=O)N1CCC(N2CCN([C@@H](C)c3ccc(S(=O)(=O)c4ccc5c(c4)OCO5)cc3)[C@H](C)C2)CC1 ... 9.10
Cc1cccc(C)c1C(=O)N1CCC(N2CCN([C@@H](C)c3ccc(S(=O)(=O)c4ccc5c(c4)OCO5)cc3)[C@@H](C)C2)CC1 ... 6.31
Cc1cccc(N)c1C(=O)N1CCC(N2CCN([C@@H](C)c3ccc(S(=O)(=O)c4ccc5c(c4)OCO5)cc3)[C@@H](C)C2)CC1 ... 7.00
C[C@H]1CN(C2CCN(C(=O)c3c(N)cccc3Cl)CC2)CCN1[C@@H](C)c1ccc(S(=O)(=O)c2ccc3c(c2)OCO3)cc1 ... 7.00
Cc1cccc(C)c1C(=O)N1CCC(N2CCN([C@@H](C)c3ccc(Cc4ccc5c(c4)OCO5)cc3)[C@@H](C)C2)CC1 ... 6.12
Cc1cccc(C)c1C(=O)N1CCC(N2CCN([C@@H](C)c3ccc(S(=O)(=O)c4ccc5c(c4)OCO5)cc3)CC2)CC1 ... 9.00

* * *

molecular target: C-C chemokine receptor type 5 (Homo sapiens, UniProt P51681)
Sequence (P51681 whole entry): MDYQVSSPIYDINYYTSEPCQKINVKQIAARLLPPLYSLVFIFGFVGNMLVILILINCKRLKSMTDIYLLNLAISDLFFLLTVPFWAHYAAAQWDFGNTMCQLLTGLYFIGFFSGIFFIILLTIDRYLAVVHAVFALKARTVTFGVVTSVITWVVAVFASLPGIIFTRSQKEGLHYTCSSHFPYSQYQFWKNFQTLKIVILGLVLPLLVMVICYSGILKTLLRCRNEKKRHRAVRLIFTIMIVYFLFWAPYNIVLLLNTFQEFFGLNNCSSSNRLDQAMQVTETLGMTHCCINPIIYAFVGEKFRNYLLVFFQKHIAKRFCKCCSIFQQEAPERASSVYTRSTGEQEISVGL
measure name: IC50 (nM)

Cc1cccc(C)c1C(=O)N1CCC(N2CCN([C@@H](C)c3ccc(S(=O)(=O)c4ccc5c(c4)OCO5)cc3)[C@H](C)C2)CC1 ... 440

* * *

Form: system (UniProtKB P08172), quantity (Ki), values below.
measure name: Ki

Cc1cccc(C)c1C(=O)N1CCC(N2CCN([C@@H](C)c3ccc(Cc4cccc(Cl)c4)cc3)[C@@H](C)C2)CC1 ... > 1400 nM
Cc1cccc(C)c1C(=O)N1CCC(N2CCN(Cc3ccc(Cc4ccc5c(c4)OCO5)cc3)[C@@H](C)C2)CC1 ... > 40 nM
Cc1cccc(C)c1C(=O)N1CCC(N2CCN(Cc3ccc(S(=O)(=O)c4ccc5c(c4)OCO5)cc3)[C@@H](C)C2)CC1 ... > 40 nM
